Assay: Cell viability assay (WST-8), KYSE70
Format: cell-based, human
Conditions: human, KYSE70 cells, conc 10, 72 h, replicates; read-out: cell viability relative to control
readout-name: viability at 72 h

Challenge: Requested field: viability at 72 h. Item: C=C(CN1CCOCC1)C(=O)NC[C@H](NC(=O)[C@@H](Cc1nc2ccc(C(C)C)cc2s1)NC(=O)CC)C1CCCCC1 [DI-1548DD]
Response given: 98.7%

Challenge: Next compound: `NS(=O)(=O)OC[C@@H]1C[C@@H](n2ccc3c(N[C@H]4CCc5ccccc54)ncnc32)C[C@@H]1O`
Response given: 110%

Challenge: Next compound: `C=C(CN1CCOCC1)C(=O)NC[C@@H](NC(=O)[C@H](Cc1nc2ccc(C(C)C)cc2s1)NC(=O)CC)C1CCCCC1`
Response given: 99.4%

---

Biological target: UniProtKB Q96GG9
pKi: −log10 of the molar value.
readout-name: pKi

Challenge: Requested field: pKi. Item: `C=C(CN1CCOCC1)C(=O)NC[C@@H](NC(=O)[C@H](Cc1nc2ccc(C(C)C)cc2s1)NC(=O)CC)C1CCCCC1`
Response given: > 9.00

---

Assay: Cell viability assay (WST-8), KYSE70
Type: cell-based, human
Settings: human, KYSE70 cells, conc 30, 72 h, replicates; read-out: cell viability relative to control
Please go through the items and note down their viability at 72 h.
Answer with a number only, understood to be in %.

Challenge: Requested field: viability at 72 h. Item: `NS(=O)(=O)OC[C@@H]1C[C@@H](n2ccc3c(N[C@H]4CCc5ccccc54)ncnc32)C[C@@H]1O`
Response given: 76.4

Challenge: Next compound: `C=C(CN1CCOCC1)C(=O)NC[C@@H](NC(=O)[C@H](Cc1nc2ccc(C(C)C)cc2s1)NC(=O)CC)C1CCCCC1`
Response given: 104

---

Target: DCN1 (Homo sapiens)
Experiment: Intact-protein mass spectrometric analysis of covalent complex formation, Method A
Format: binding
Conditions: 720 min (12 h) incubation, 37 °C
Sequence (Q96GG9 58-259 limits assumed): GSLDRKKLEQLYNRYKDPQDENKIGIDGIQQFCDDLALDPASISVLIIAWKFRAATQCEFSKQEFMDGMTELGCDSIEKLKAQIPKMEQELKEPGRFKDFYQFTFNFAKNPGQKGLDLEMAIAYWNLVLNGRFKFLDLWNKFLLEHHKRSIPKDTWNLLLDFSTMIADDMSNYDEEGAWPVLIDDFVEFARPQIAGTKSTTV
readout-name: Percentage of the formation of covalent complex with DCN1 protein (%)
Answer with a number only, understood to be in %.

Challenge: Lab note: need Percentage of the formation of covalent complex with DCN1 protein with DCN1 (Homo sapiens) for entry CCC(=O)N[C@@H](Cc1nc2ccc(C(C)C)cc2s1)C(=O)N[C@H](CNC(=O)/C=C/CN(C)C)C1CCCCC1 [compound 5] , please look it up.
Response given: 30

Challenge: Next molecule: C=C(CCN(C)C)C(=O)NC[C@@H](NC(=O)[C@H](Cc1nc2ccc(C(C)C)cc2s1)NC(=O)CC)C1CCCCC1 [compound 9]
Response given: 100

Challenge: Next molecule: CCC(=O)N[C@@H](Cc1nc2ccc(C(C)C)cc2s1)C(=O)N[C@H](CNC(=O)CCl)C1CCCCC1 [compound 2]
Response given: 70

Challenge: Next molecule: C=CC(=O)NC[C@@H](NC(=O)[C@H](Cc1nc2ccc(C(C)C)cc2s1)NC(=O)CC)C1CCCCC1 [compound 3]
Response given: 40

Challenge: Next molecule: C=C(Cn1ccnc1)C(=O)NC[C@@H](NC(=O)[C@H](Cc1nc2ccc(C(C)C)cc2s1)NC(=O)CC)C1CCCCC1 [compound 10]
Response given: 100

Challenge: Next molecule: C=C(CCN1CCOCC1)C(=O)NC[C@@H](NC(=O)[C@H](Cc1nc2ccc(C(C)C)cc2s1)NC(=O)CC)C1CCCCC1 [compound 8]
Response given: 100

---

Assay: Cell viability assay (WST-8), HCT116
Assay type: cell-based, human
Conditions: human, HCT116 cells, conc 10, 72 h, replicates; read-out: cell viability relative to control
Please go through the items and note down their viability at 72 h.

Challenge: Requested field: viability at 72 h. Item: NS(=O)(=O)OC[C@@H]1C[C@@H](n2ccc3c(N[C@H]4CCc5ccccc54)ncnc32)C[C@@H]1O [MLN4924]
Response given: 118%

Challenge: Next molecule: CCC(=O)N[C@@H](Cc1nc2ccc(C(C)C)cc2s1)C(=O)N[C@H](CNC(=O)CCN1CCOCC1)C1CCCCC1 [DI-591]
Response given: 94.3%

Challenge: Next molecule: C=C(CN1CCOCC1)C(=O)NC[C@H](NC(=O)[C@@H](Cc1nc2ccc(C(C)C)cc2s1)NC(=O)CC)C1CCCCC1 [DI-1548DD]
Response given: 107%

---

Experiment: Cell viability assay (WST-8), MDA-MB-231
Assay type: cell-based, human
Details: human, MDA-MB-231 cells, conc 1000, 72 h, replicates; read-out: cell viability relative to control
readout-name: viability at 72 h (%)
Answer with a number only, understood to be in %.

Challenge: Requested field: viability at 72 h. Item: `NS(=O)(=O)OC[C@@H]1C[C@@H](n2ccc3c(N[C@H]4CCc5ccccc54)ncnc32)C[C@@H]1O`
Response given: 13.7

Challenge: Next compound: `CCC(=O)N[C@@H](Cc1nc2ccc(C(C)C)cc2s1)C(=O)N[C@H](CNC(=O)CCN1CCOCC1)C1CCCCC1`
Response given: 94.9

---

Please go through the items and note down their viability at 72 h.
Assay: Cell viability assay (WST-8), HCT116
Format: cell-based, human
Conditions: human, HCT116 cells, conc 1000, 72 h, replicates; read-out: cell viability relative to control
Answer with a number only, understood to be in %.

Challenge: Requested field: viability at 72 h. Item: `NS(=O)(=O)OC[C@@H]1C[C@@H](n2ccc3c(N[C@H]4CCc5ccccc54)ncnc32)C[C@@H]1O`
Response given: 27.6

Challenge: Next molecule: `CCC(=O)N[C@@H](Cc1nc2ccc(C(C)C)cc2s1)C(=O)N[C@H](CNC(=O)CCN1CCOCC1)C1CCCCC1`
Response given: 94.3

Challenge: Next molecule: C=C(CN1CCOCC1)C(=O)NC[C@H](NC(=O)[C@@H](Cc1nc2ccc(C(C)C)cc2s1)NC(=O)CC)C1CCCCC1 [DI-1548DD]
Response given: 79.7

---

Assay: Pharmacokinetics: concentrations in mouse plasma and liver
Format: in vivo
Conditions: male, C57BL/6, mouse, plasma, ip, 25 mg/kg, C57BL/6 male mice, 25 mg/kg IP, 1 h; read-out: Plasma concentration
readout-name: concentration at 1 h (ng/mL)
Answer with a number only, understood to be in ng/mL.

Challenge: Requested field: concentration at 1 h. Item: `C=C(CN1CCOCC1)C(=O)NC[C@@H](NC(=O)[C@H](Cc1nc2ccc(C(C)C)cc2s1)NC(=O)CC)C1CCCCC1`
Response given: 1830

Challenge: Next compound: `C=C(CN(C)C)C(=O)NC[C@@H](NC(=O)[C@H](Cc1nc2ccc(C(C)C)cc2s1)NC(=O)CC)C1CCCCC1`
Response given: 1740

---

Assay: Cell viability assay (WST-8), HCT116
Type: cell-based, human
Conditions: human, HCT116 cells, conc 3, 72 h, replicates; read-out: cell viability relative to control
readout-name: viability at 72 h (%)
Answer with a number only, understood to be in %.

Challenge: Requested field: viability at 72 h. Item: `CCC(=O)N[C@@H](Cc1nc2ccc(C(C)C)cc2s1)C(=O)N[C@H](CNC(=O)CCN1CCOCC1)C1CCCCC1`
Response given: 106

Challenge: Next compound: `NS(=O)(=O)OC[C@@H]1C[C@@H](n2ccc3c(N[C@H]4CCc5ccccc54)ncnc32)C[C@@H]1O`
Response given: 103

Challenge: Next compound: C=C(CN1CCOCC1)C(=O)NC[C@H](NC(=O)[C@@H](Cc1nc2ccc(C(C)C)cc2s1)NC(=O)CC)C1CCCCC1 [DI-1548DD]
Response given: 96.9

---

Please go through the items and note down their concentration at 1 h.
Experiment: Pharmacokinetics: concentrations in mouse plasma and liver
Type: in vivo
Details: male, C57BL/6, mouse, plasma, ip, 25 mg/kg, mouse plasma, IP 25mg/kg, 1h, single animals; read-out: Concentration in mouse plasma, individual mice 1, 2, 3
Answer with a number only, understood to be in ng/mL.

Challenge: Requested field: concentration at 1 h. Item: `C=C(CN(C)C)C(=O)NC[C@@H](NC(=O)[C@H](Cc1nc2ccc(C(C)C)cc2s1)NC(=O)CC)C1CCCCC1`
Response given: 2070

Challenge: Next compound: `C=C(CN1CCOCC1)C(=O)NC[C@@H](NC(=O)[C@H](Cc1nc2ccc(C(C)C)cc2s1)NC(=O)CC)C1CCCCC1`
Response given: 1820

---

Experiment: Cell viability assay (WST-8), KYSE70
Assay type: cell-based, human
Conditions: human, KYSE70 cells, conc 100, 72 h, replicates; read-out: cell viability relative to control
Procedure: Cell viability assay was performed as previously described. The effect of DCN1 inhibitors on cell growth was evaluated by a WST-8 [2-(2-methoxy-4-nitrophenyl)-3-(4-nitrophenyl)-5-(2,4-disulfophenyl)-2H-tetrazolium, monosodium salt assay (Dojindo Molecular Technologies, Inc). […] At the end of incubation, WST-8 dye (20 μL) was added to each well and incubated for 1–3 h, then the absorbance was measured in a microplate reader (Molecular Devices) at 450 nm. […]
Please go through the items and note down their viability at 72 h.
Answer with a number only, understood to be in %.

Challenge: Requested field: viability at 72 h. Item: `NS(=O)(=O)OC[C@@H]1C[C@@H](n2ccc3c(N[C@H]4CCc5ccccc54)ncnc32)C[C@@H]1O`
Response given: 59.5

Challenge: Next compound: `C=C(CN1CCOCC1)C(=O)NC[C@@H](NC(=O)[C@H](Cc1nc2ccc(C(C)C)cc2s1)NC(=O)CC)C1CCCCC1`
Response given: 99.4
